Test system: A549 NSCLC
Experiment: NCI tumour cell line growth inhibition, 48 h
REPORTED_METRIC: GI50

{"columns": ["COMPOUND", "REPORTED_METRIC", "MEAS_VALUE"],
 "data": [
  ["O=C1CCC/C=C\\C[C@H]2C=CC(=O)/C2=C/C[C@H](CCc2cccc(C(F)(F)F)c2)O1", "GI50", "2.31 µM"],
  ["O=C(/C=C\\Sc1ccccn1)c1cccc(Br)c1", "GI50", "23 µM"],
  ["O=C1CCc2c(Oc3ccc4c(c3)[C@H]3[C@@H](O4)[C@@H]3c3nc4ccc(C(F)(F)F)cc4[nH]3)ccnc2N1", "GI50", "2.52 µM"],
  ["O=C1OCC(C#Cc2ccccc2)=C1Br", "GI50", "16.7 µM"],
  ["CN1C[C@@H](c2ccc(Cl)cc2)[C@]2(NC(=S)N(c3ccc(F)c(Cl)c3)C2=O)[C@@]12C(=O)NC1C=CC(Cl)=C[C@H]12 (stereo not given in full)", "GI50", "3.34 µM"],
  ["COC(=O)C1=C(C(=O)OC)SC(=C(Cl)C(=S)Oc2ccccc2N)S1", "GI50", "18.1 µM"],
  ["N#C/C(=C1C=C/C(=N/O)C(Cl)=C/1)c1ccc(Cl)cc1", "GI50", "15.6 µM"],
  ["S=c1ssnc1-c1ccccn1", "GI50", "8.92 µM"],
  ["O=S(=O)(Nc1ccc(Cl)c(F)c1)c1ccc(-c2cnc(C3CC3)o2)cc1", "GI50", "0.825 µM"],
  ["NC(=O)c1c(Br)n(C2OC(CO)C(O)C2O)c2ncnc(N)c12 (stereo not given)", "GI50", "1.97 µM"]
]}
